System: HCT-116 colon
Assay: NCI tumour cell line growth inhibition, 48 h
Test Readout: TGI

QUERY: Item C#C[C@]1(O)CC[C@H]2[C@@H]3CCC4=C/C(=N\OCCN5CCCCC5)CC[C@]4(C)[C@H]3CC[C@@]21C has what recorded TGI?
RESULT: 22.2 µM

QUERY: And then Cc1c(Cn2c(C)nc3c(C(=O)O)cc(N4CCOCC4)cc32)cccc1C(F)(F)F , what is it?
RESULT: > 100 µM

QUERY: And then COc1cc(C2C=C(c3ccccc3)Oc3cc4c(cc32)OCO4)cc(OC)c1OC (centres undefined) , what is it?
RESULT: 9.44 µM

QUERY: And then CN1CCC2(CC1)SSC1(CCN(C)CC1)S2 , what is it?
RESULT: > 100 µM

QUERY: And then COC(=O)C(Cc1c[nH]c2ccccc12)NC(=O)C(Cc1cnc[nH]1)NC(=O)C1CCC(=O)N1C(=O)OCc1ccccc1 (centres undefined) , what is it?
RESULT: > 100 µM

QUERY: And then COc1ccc(N2C(=O)C3CC(c4ccc(Br)cc4)c4c([nH]c5ccccc45)C3C2=O)cc1 (centres undefined) , what is it?
RESULT: 16.1 µM

QUERY: And then Cc1c(NC(=S)Nc2ccc([N+](=O)[O-])cc2)c(=O)n(-c2ccccc2)n1C , what is it?
RESULT: > 100 µM

QUERY: And then NC1=Nc2ccccc2Sc2nncn21 , what is it?
RESULT: > 100 µM

QUERY: And then COc1ccc(/[N+]([O-])=C/c2ccc(OC(=S)S)c(OC)c2)cc1 , what is it?
RESULT: > 100 µM

QUERY: And then COC(=O)Nc1nc2ccc(NS(=O)(=O)c3cccs3)cc2[nH]1 , what is it?
RESULT: 47.5 µM

QUERY: And then O=C1CCCCCCC2=C1C(Sc1ccccc1)CC2 (centres undefined) , what is it?
RESULT: 67.8 µM

QUERY: And then CC1OC(OC2C(O)COC(OC3C(C)OC(OC4C(OC(=O)[C@]56CCC(C)(C)C[C@@H]5C5=CCC7[C@@]8(C)C[C@H](O)[C@H](OC9OC(CO)C(O)C(O)C9O)[C@@](C)(CO)[C@@H]8CC[C@@]7(C)[C@]5(C)CC6)OCC(O)C4O)C(O)C3O)C2O)C(O)C(O)C1O (some centres undefined) , what is it?
RESULT: 57.2 µM

QUERY: And then NC(=S)N1N=C2CCCCCC[C@@H]2[C@H]1c1ccccc1 , what is it?
RESULT: > 100 µM

QUERY: And then CC(Oc1ccc2c(-c3ccc(Cl)cc3)cc(=O)oc2c1)C(=O)O (centres undefined) , what is it?
RESULT: > 100 µM

QUERY: And then Cc1ccc2c(C(C[N+](=O)[O-])c3ccccc3)c(-c3ccccc3)[nH]c2c1 (centres undefined) , what is it?
RESULT: > 95 µM

QUERY: And then COc1ccc2[nH]cc(CCNC(=O)[C@H](Cc3ccc(O)cc3)NC(=O)[C@@H](NCC(F)(F)F)C(C)C)c2c1 , what is it?
RESULT: > 100 µM

QUERY: And then COc1ccc(C(=O)C2CCC(C(=O)O)C2)cc1 (centres undefined) , what is it?
RESULT: > 100 µM

QUERY: And then CCOC(=O)c1c(O)cn2c1[nH]c1cccc3cccc2c31 , what is it?
RESULT: > 100 µM

QUERY: And then COc1cc(CCC[P+](c2ccccc2)(c2ccccc2)c2ccccc2)c(OC)c2c1OCO2 , what is it?
RESULT: 16.2 µM

Sourced from PubChem BioAssay (NCI)
